Reported viability, T/C is given for each of the following compounds.
test system: 616215-338-R-J1-PDC tumor spheroids, viability; experiment: Anticancer human tumor 616215-338-R-J1-PDC patient-derived colon adenocarcinoma cell line growth inhibition [GQUAD]; details: second compound 0.1 µM; first compound 10 µM; hits give low values; spheroids with HUVEC and MSC;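 also: spheroids exposed to agents for 7 days before readout; percent viability relative to DMSO vehicle control wells taken as 100%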
Report the value in % with no unit label.

Record excerpt, results attached:
compound: CC(C)n1c(=O)n(C)c2cnc3cc(F)c(-c4ccc(OCCCN5CCCCC5)nc4)cc3c21 + Cc1[nH]c2ccc(F)cc2c1-c1nc2c3cccnc3c3ncccc3c2[nH]1
measured_on: 616215-338-R-J1-PDC tumor spheroids, viability
viability, T/C [%]: 85.7
--
compound: C=CCn1c(=O)c2cnc(Nc3ccc(N4CCN(C)CC4)cc3)nc2n1-c1cccc(C(C)(C)O)n1 + Cc1[nH]c2ccc(F)cc2c1-c1nc2c3cccnc3c3ncccc3c2[nH]1
measured_on: 616215-338-R-J1-PDC tumor spheroids, viability
viability, T/C [%]: 11.9

# evaluate next
q: Item C=CCn1c(=O)c2cnc(Nc3ccc(N4CCN(C)CC4)cc3)nc2n1-c1cccc(C(C)(C)O)n1 + CN(C)c1ccc(Nc2c3ccc(NC(=O)CCN4CCCC4)cc3nc3cc(NC(=O)CCN4CCCC4)ccc23)cc1 has what recorded viability, T/C?
a: 12

Taken from PubChem BioAssay AID2060493.
